The entries below are paired with their reported IC50.
- System: SW480
- ASSAY PROCEDURE: Cytotoxicity against human SW480 cells assessed as decrease in cell viability after 48 hrs by MTS assay
- Type: functional, cell-based
- MEASUREMENT SETUP: SW480, 48 h

C=C1[C@@H]([C@H](C)C[C@@H]2C=C(C)C(=O)O2)CC[C@@]2(C)C3=CC[C@H]4C(C)(C)[C@H](O)CC[C@]4(C)[C@@H]3C[C@@H]12
25.4 µM
C=C1[C@@H]([C@H](C)C[C@H]2C=C(C)C(=O)O2)CC[C@@]2(C)C3=CC[C@H]4C(C)(C)[C@H](O)CC[C@]4(C)[C@@H]3C[C@@H]12
20.1 µM
C=C1[C@@H]([C@H](C)C[C@@H](O)/C=C(\C)C(=O)O)CC[C@@]2(C)C3=CC[C@H]4C(C)(C)[C@H](OC(C)=O)CC[C@]4(C)[C@@H]3C[C@@H]12
> 10 µM
C=C1[C@@H]([C@H](C)CC(=O)/C=C(\C)C(=O)O)CC[C@@]2(C)C3=CC[C@H]4C(C)(C)[C@H](OC(C)=O)CC[C@]4(C)[C@@H]3C[C@@H]12
5.99 µM
CC(=O)O[C@H]1C(=O)[C@@]2(C)[C@H]([C@H](OC(=O)c3ccccc3)[C@]3(O)C[C@H](OC(=O)[C@H](O)[C@@H](NC(=O)c4ccccc4)c4ccccc4)C(C)=C1C3(C)C)[C@]1(OC(C)=O)CO[C@@H]1C[C@@H]2O
< 0.008 µM
CC(=O)O[C@@H]1CC[C@]2(C)[C@@H]3C[C@H]4C(C=O)=C([C@H](C)CC/C=C(/C)C(=O)O)CC[C@@]4(C)C3=CC[C@H]2C1(C)C
> 10 µM
C=C1[C@@H]([C@H](C)CC/C=C(/C)C(=O)O)CC[C@@]2(C)C3=CC[C@H]4C(C)(C)[C@H](O)CC[C@]4(C)[C@@H]3C[C@@H]12
> 10 µM
CC(=O)O[C@@H]1CC[C@]2(C)[C@@H]3C[C@H]4C(CO)=C([C@H](C)CC/C=C(/C)C(=O)O)CC[C@@]4(C)C3=CC[C@H]2C1(C)C
> 10 µM
CC(=O)O[C@@H]1CC[C@]2(C)[C@@H]3C[C@H]4[C@@](C)(O)[C@@H]([C@H](C)CC/C=C(/C)C(=O)O)CC[C@@]4(C)C3=CC[C@H]2C1(C)C
> 10 µM
C=C1[C@@H]([C@H](C)CC/C=C(/C)C(=O)O)CC[C@]2(C)[C@H]1C[C@H]1[C@@]3(C)CCC(=O)C(C)(C)[C@@H]3C[C@@H]3O[C@@]312
> 10 µM

-- ask Specify IC50 for "CC(=O)O[C@@H]1CC[C@]2(C)[C@@H]3CC4=C(CO)[C@@H]([C@H](C)CC/C=C(/C)C(=O)O)CC[C@@]4(C)C3=CC[C@H]2C1(C)C" and stop.
-- reply > 10 µM

Hello, the source for this data is ChEMBL document CHEMBL4000161, in case you need it.
